- target: human IgG1 (human)
- procedure_details: SPR, Biacore X-100, human IgG1 on the chip, single cycle kinetics
property_label: kon (M⁻¹ s⁻¹)
Return type: number; implicit unit M⁻¹ s⁻¹.

*Q* Which measured kon value corresponds to single-chain antibody R3-26 (scFv) scFv: QEQLVESGGGLVKPGGTLTLTCTVSGIDLSSYAMSWVRQVPGKGLEWIGIIGSGGGTAYANWAKGRFTISKTSSTTVDLKMTSLTTEDTATYFCATDYGIYGYAYGHLWGPGTLVTVTSGGGGSGGGGSGGGGSELVMTQTASPVSAAVGGTVTIKCQASQSISTALAWYQQRPGQPPKLLIYDASTLASGVSSRFKGSGSGTEFTLTISDLECADAATYYCQTYFGSDTDNAFGEGTEVEITGSAAALEHHHHHH ?
*A* 21000
